Taken from patent US20250230193A1.

- System: human lung cancer strain NCI-H441
- PROCEDURE_DETAILS: cells
- CONDITION_LABEL: NCI-H441, 96 h, read-out: NCI-H441 IC50 (nM)
RESULT_TYPE: IC50 (nM)
Please give a number only; it is taken to be in nM.

Illustrative cases are given below, each with its answer.
MOLECULE | REPORTED
CC[C@H](C)[C@@H]1NC(=O)[C@H](CC2CC2)N(C)C(=O)C[C@@H](C(=O)N2CCCC2)N(C)C(=O)[C@H](C2CCCC2)N(C)C(=O)C2(CCCC2)NC(=O)[C@@H]2C[C@@H](C(F)(F)F)CN2C(=O)[C@H](CCc2cc(F)c(C(F)(F)F)c(F)c2)NC(=O)CN(C)C(=O)[C@H](Cc2ccc(C(F)(F)F)cc2)N2CC/C=C\C[C@@H](C2=O)N(C)C(=O)CN(C)C1=O [PP1506] | 73.4
CC[C@H](C)[C@@H]1NC(=O)[C@H](CC)N(C)C(=O)C[C@@H](C(=O)N2CCOCC2)N(C)C(=O)[C@H](C2CCCC2)N(C)C(=O)C2(CCCC2)NC(=O)[C@@H]2CCCN2C(=O)[C@H](CCc2ccc(C(F)(F)F)c(Cl)c2)NC(=O)CN(C)C(=O)[C@H](Cc2ccc(C(F)(F)F)cc2)N2C[C@H](C)CC[C@@H](C2=O)N(C)C(=O)CN(C)C1=O [PP1337] | 29.8

Return the recorded IC50 value; entry: CCO[C@@H]1C[C@H]2C(=O)NC3(CCC3)C(=O)N(C)[C@@H](C(CC)CC)C(=O)N(C)[C@H](C(=O)N(C)C)CC(=O)N(C)[C@@H](CC3CCCC3)C(=O)N[C@@H]([C@@H](C)CC)C(=O)N(C)CC(=O)N(C)[C@H]3C/C=C\CCN(C3=O)[C@@H](Cc3ccc(C(F)(F)F)cc3)C(=O)N(C)CC(=O)N[C@@H](CCc3ccc(Cl)c(Cl)c3)C(=O)N2C1 [PP1220]
22.2

Retrieve IC50 measured for CCO[C@@H]1C[C@H]2C(=O)NC3(CCC3)C(=O)N(C)[C@@H](C3CCCC3)C(=O)N(C)[C@H](C)CC(=O)N(C)[C@@H](CC3CCCC3)C(=O)N[C@@H]([C@@H](C)CC)C(=O)N(C)CC(=O)N(C)[C@H]3C/C=C\CCN(C3=O)[C@@H](Cc3ccc(C)cc3)C(=O)N(C)CC(=O)N[C@@H](CCc3cc(F)c(C(F)(F)F)c(F)c3)C(=O)N2C1 [PP1413] and print it.
62.5

Give IC50 for CCO[C@@H]1C[C@H]2C(=O)NC3(CCC3)C(=O)N(C)[C@@H](C3CCCC3)C(=O)N(C)[C@H](C(=O)N3CCOCC3)CC(=O)N(C)[C@@H](CC3CCCCC3)C(=O)N[C@@H]([C@@H](C)CC)C(=O)N(C)CC(=O)N(C)[C@H]3C/C=C\CCN(C3=O)[C@@H](Cc3ccc(C(F)(F)F)cc3)C(=O)N(C)CC(=O)N[C@@H](CCc3cc(F)c(C(F)(F)F)c(F)c3)C(=O)N2C1 [PP1418]
29.9

Report IC50 for CCO[C@@H]1C[C@H]2C(=O)NC3(CC(C)(C)C3)C(=O)N(C)[C@@H](C3CCCC3)C(=O)N(C)[C@H](C(=O)N(C)CC)CC(=O)N(C)[C@@H](CC)C(=O)N[C@@H]([C@@H](C)CC)C(=O)N(C)CC(=O)N(C)[C@H]3C/C=C\CCN(C3=O)[C@@H](Cc3ccc(C(F)(F)F)cc3)C(=O)N(C)CC(=O)N[C@@H](CCc3cc(F)c(C(F)(F)F)c(F)c3)C(=O)N2C1 [PP1579]
4.1
